# Target entity: GII.4 Sydney 2012 virus-like particles (VLPs), based on strain AFV08795.1 (human norovirus GII.4 Sydney 2012, UniProt P54635 1-538, The particle is a multimeric assembly of VP1 with a little VP2 inside; one VP1 chain is given.)
# Test summary: indirect ELISA, VLP coated
Experimental endpoint: EC50 (µg/mL)

INSERT INTO results (binder, experimental_endpoint, measurement_units, numeric_readout) VALUES
  ('NORO-123 (antibody, V domains shown) VH: QVQLVESGGGVVQPGRSLRLSCSTSGFTFSQYPMHWVRQAPGKGLEWVALISYDGMNKYYADSVRGRFTISRDNSENTQYLQMNSLRGDDTAVYYCARVTGDCTGNRCSYWAYYYYGLDVWGQGTLVTVSS VL: QSALTQPPSASGSPGQSVTISCTGTSSDVGGYKYVSWYQQHPGKAPKLMIYEVTRRPSGVPDRFSGSKSGNTAFLTVSGLQAEDEADYYCGSYAGSTTSGYVFGTGTKVIVL', 'EC50', 'µg/mL', 5.4),
  ('NORO-115 (antibody, V domains shown) VH: QVQLVESGGGLVKPGGSLRLSCTASGITISGYYMSWIRQAPGKGLEWIVYINTSGRTIYYADSVKGRFSVSRDNAKESLYLQMDSLTVDDTGIYYCARDRLPASGSHWFHPWGQGTLVTVSS VL: DIVMTQSPDSLAVSLGGRATINCKSSQSVLYTSDNKNYLAWYQQQPGQPPKLLISWASTRESGVPDRFSGSGSGTDFTLTISNLQAEDVAVYYCQQYYNSPLAFGGGTKVEIK', 'EC50', 'µg/mL', 0.1),
  ('NORO-278 (antibody, V domains shown) VH: QVQLVESGGGVVQPGRSLRLSCAASGFTFSSYGMHWVRQAPGKGLEWVAVISYDGSNKYYADSVKGRFTISRDNSKNTLYLQMNSLRAEDTAVYYCAKVTIIAAADLLDYWGQGTLVTVSS VL: QSVLTQPPSVSGAPGQRVTISCTGSSSNIGAGYDVHWYQQLPGTAPKLLIYGNSNRPSGVPDRFSGSKSGTSASLAITGLQAEDEADYYCQSYDSSLSGPVVFGGGTKLTVL', 'EC50', 'µg/mL', 4),
  ('NORO-310A (antibody, V domains shown) VH: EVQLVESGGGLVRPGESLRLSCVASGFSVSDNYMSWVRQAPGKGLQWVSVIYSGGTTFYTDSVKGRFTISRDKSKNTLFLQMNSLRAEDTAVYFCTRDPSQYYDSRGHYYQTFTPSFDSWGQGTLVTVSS VL: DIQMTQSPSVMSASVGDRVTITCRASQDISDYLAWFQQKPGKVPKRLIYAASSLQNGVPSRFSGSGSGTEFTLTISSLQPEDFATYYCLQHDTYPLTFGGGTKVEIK', 'EC50', 'µg/mL', 6.2);

Just for reference, patent US20230054956A1 is where these values come from.
